- method: NCI Yeast Anticancer Drug Screen. Data for the sgs1 mgt1 strain (AID 161);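 also: 0% = growth of cultures given vehicle only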
- setup-conditions: S. cerevisiae sgs1 mgt1 strain, at 50.0 µM, active compounds read high
The panel holds about 79,000 compounds, 15% with a hit somewhere; the sample as a whole holds those more often.
Tag: Fulfilled if measured growth inhibition is not below -20%, Not fulfilled if it is.

Query :: Does growth inhibition meet or surpass -20% for CC[As](=O)(O)c1ccc(OC)c(I)c1 ?
Result :: Fulfilled

Query :: Determine whether this compound has growth inhibition no lower than -20%: c1cc2[se][se]c3c4cccc5[se][se]c(c(c1)c23)c54
Result :: Not fulfilled

Query :: Could you please find out whether CC(=O)[CH-]C(C)=O.CC(=O)[CH-]C(C)=O.CC(=O)[CH-]C(C)=O.CCC(=O)O.[Zn+2].[Zn] has growth inhibition that meets -20% or exceeds it?
Result :: Fulfilled

Query :: Check this compound for growth inhibition at or above -20%: COC(=O)C1C(=O)NC2(C)CC1c1ccccc1O2 (stereo not given)
Result :: Not fulfilled

Query :: Given Clc1cccc(Cl)c1CBr , state whether its growth inhibition is at least -20%.
Result :: Fulfilled

Query :: Determine whether measured growth inhibition meets or exceeds -20% for OCCNC1CCCCC1
Result :: Fulfilled

Query :: Hi, just wondering whether O=C(Nc1ccccc1)c1ccc([As](c2ccc(C(=O)Nc3ccccc3)cc2)c2ccc(C(=O)Nc3ccccc3)cc2)cc1 shows growth inhibition of -20% or higher.
Result :: Fulfilled

Query :: For this compound, is measured growth inhibition -20% or higher? CN(C)C1C(=O)C(C(=O)NP(=O)(NCCCO)N(CCCl)CCCl)=C(O)C2(O)C(=O)C3=C(O)c4c(O)cccc4C(C)(O)C3CC12 (stereo not given)
Result :: Fulfilled

Query :: Hello, I need to know if O=c1[nH]c2ccccc2c(=O)n1-c1ccco1 has measured growth inhibition not below -20%. Thanks!
Result :: Fulfilled

Query :: Is it the case that CC1[N-]C(/C=N/O)NC(C)N1.CC1[N-]C(/C=N/O)NC(C)N1.[Br][Ni+2][Br] (stereo not given) has growth inhibition reaching or exceeding -20%?
Result :: Not fulfilled

----------
- method: NCI Yeast Anticancer Drug Screen. Data for the cln2 rad14 strain (AID 165);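 also: 0% = growth equal to vehicle treated cultures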
- setup-conditions: S. cerevisiae cln2 rad14 strain, at 50.0 µM, active compounds read high
- Procedure: Growth inhibition of yeast strains with defined genetic alterations is measured as a screen for potential anti-cancer activity. Selected strains with alterations in DNA damage repair or cell cycle control were exposed to compounds and growth inhibition was measured relative to vehicle treated controls. The strain used in this assay is cln2 rad14
Compounds without any hit were thinned out: in the full panel of roughly 79,000, 15% have a hit.
assay-readout: growth inhibition (%)
Return type: number; implicit unit %.

Query :: # growth inhibition lookup, item CC(=O)OC1CC2(O)C3CCC4CC(O)CCC4(C)C3CCC2(C)C1C1=CC(=O)OC1 (stereo unspecified)
Result :: -6.4

Query :: // growth inhibition lookup, key: CCC(C)(C)C(=O)Nc1cccc(OC(=O)NC)c1
Result :: -3.35

Query :: Query (compound): C/C=C(/C)C(=O)O[C@H]1CCN2CC=C(COC(=O)[C@@](O)([C@H](C)OC)C(C)(C)O)[C@H]12 ; field requested: growth inhibition
Result :: 11.6

Query :: Item Nc1cccc2c1Cc1cc([N+](=O)[O-])ccc1-2 has what recorded growth inhibition?
Result :: -14.4

Query :: Give its growth inhibition value. Item: CC(C)(C)N.[O]=[Cr](=[O])([OH])[OH]
Result :: -2.25

Query :: Reported growth inhibition, compound O=C(NC(c1ccccc1)(c1ccccc1)c1ccccc1)N(CCCl)CCCl : ____
Result :: 5.3
